# Measurement target: Soluble Aβ(1-40) (Homo sapiens, UniProt P05067)
# Construct: Soluble Aβ(1-40)—2.2 mg/mL in deionized H2O
# Sequence (P05067 672-711 limits assumed): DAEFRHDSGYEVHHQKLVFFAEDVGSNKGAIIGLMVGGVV
# Test summary: BASST (Beta-Amyloid Self-Seeding, Thioflavin T): inhibitors of self-seeded amyloid fibril growth
# Condition context: 30 μM soluble Aβ(1-40), 37° C., 3 to 5 hours, thioflavin T fluorescence
Reported metric: IC50 (µM)

P: COc1ccc(Nc2ccc3c(c2)CC(NCc2ccc(Cl)c(Cl)c2)C3)c(C(=O)O)c1 (stereo not shown) [Example 5]
Q: O=C(O)c1cc([N+](=O)[O-])ccc1Nc1ccc2c(c1)CC(NCc1ccc(Cl)c(Cl)c1)C2 (stereo not shown) [Example 4]
Problem: Hi team, can someone confirm which has the larger IC50: P or Q ? Thanks. Please identify the chosen entry by its label.
Result: P
(P: 30 µM, Q: 1.1 µM)

I: O=C(O)c1cc([N+](=O)[O-])ccc1Nc1ccc2c(c1)CC(N(Cc1ccc(F)cc1)Cc1ccc(F)cc1)C2 (stereo not shown) [Example 11]
II: CCCCCN(CCCCC)C1Cc2ccc(Nc3ccc(C(=O)O)cc3[N+](=O)[O-])cc2C1 (stereo not shown) [Example 7]
Problem: Between I and II , which one shows the smaller IC50 number? Please identify the chosen entry by its label.
Result: I
(I: 1 µM, II: 8 µM)

* * *

# Measurement target: Soluble Aβ(1-40) (Homo sapiens, UniProt P05067)
# Construct: Soluble Aβ(1-40)—2.2 mg/mL in deionized H2O
# Test summary: BASST (Beta-Amyloid Self-Seeding, Thioflavin T): inhibitors of self-seeded amyloid fibril growth
# Condition context: 30 μM soluble Aβ(1-40), 37° C., 3 to 5 hours, thioflavin T fluorescence
Reported metric: IC50 (µM)

I: O=C(O)c1ccccc1Nc1ccc2c(c1)CC(NCc1ccc(Cl)c(Cl)c1)C2 (stereo not drawn)
II: O=C(O)c1cc([N+](=O)[O-])ccc1NC1Cc2ccc(Nc3ccc(Cl)c(Cl)c3)cc2C1 (stereo not drawn)
Problem: Between I and II , which one shows the smaller IC50 number? Please identify the chosen entry by its label.
Result: II
(II: 0.25 µM, I: 40 µM)
